Biological target: m-calpain (Sus scrofa)
Construct: erythrocytes calpain-1 were purchased from Millipore; purchased Millipore; host or cells: porcine erythrocytes
Sequence (P35750 whole entry): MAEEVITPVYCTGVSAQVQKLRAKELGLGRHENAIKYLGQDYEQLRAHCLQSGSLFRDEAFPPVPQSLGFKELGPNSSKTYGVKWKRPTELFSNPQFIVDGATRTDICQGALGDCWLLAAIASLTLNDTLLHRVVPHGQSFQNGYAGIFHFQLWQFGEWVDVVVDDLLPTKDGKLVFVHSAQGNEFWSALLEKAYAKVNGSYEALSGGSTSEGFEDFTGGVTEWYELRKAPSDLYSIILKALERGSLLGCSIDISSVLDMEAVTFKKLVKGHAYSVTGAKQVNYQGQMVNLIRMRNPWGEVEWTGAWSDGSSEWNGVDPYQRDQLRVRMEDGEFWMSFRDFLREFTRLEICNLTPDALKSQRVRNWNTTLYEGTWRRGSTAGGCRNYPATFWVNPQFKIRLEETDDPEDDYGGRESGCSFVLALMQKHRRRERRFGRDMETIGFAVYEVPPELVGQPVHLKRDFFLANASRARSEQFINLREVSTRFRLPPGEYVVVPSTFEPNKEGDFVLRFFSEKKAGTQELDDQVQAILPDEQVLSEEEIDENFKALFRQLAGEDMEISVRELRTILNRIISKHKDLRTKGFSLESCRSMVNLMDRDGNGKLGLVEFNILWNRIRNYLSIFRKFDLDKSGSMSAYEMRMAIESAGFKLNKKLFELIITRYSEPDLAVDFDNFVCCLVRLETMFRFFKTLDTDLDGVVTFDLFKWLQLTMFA
Sequence (P04574 whole entry partner): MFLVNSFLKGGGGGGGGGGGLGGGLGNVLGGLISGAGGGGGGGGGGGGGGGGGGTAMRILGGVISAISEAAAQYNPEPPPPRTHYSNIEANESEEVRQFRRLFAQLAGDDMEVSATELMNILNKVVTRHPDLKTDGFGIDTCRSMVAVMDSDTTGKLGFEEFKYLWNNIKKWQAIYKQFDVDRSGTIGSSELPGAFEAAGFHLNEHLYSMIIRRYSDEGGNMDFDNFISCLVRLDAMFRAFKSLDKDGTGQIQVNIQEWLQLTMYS
Experiment: Fluorometric kinetic enzyme assay, m-calpain (Suc-LLVY-AMC)
Type: biochemical
Conditions: Suc-LLVY-AMC; N.I. = no inhibition at 130 μM; read-out: IC50 m-Calpain
pIC50: −log10 of the molar value.
measure name: pIC50

# molecule, pIC50
records = [
    ("CC(C)C[C@H](NC(=O)[C@H](CCc1ccccc1)NC(=O)CN1CCOCC1)C(=O)N[C@@H](Cc1ccccc1)C(=O)N[C@@H](CC(C)C)C(=O)[C@@]1(C)CO1 [carfilzomib, reference compound]", "< 3.89"),
    ("CC(=O)N[C@H]1Cc2ccc([N+](=O)[O-])c(c2)Oc2ccc(cc2)C[C@@H](C(=O)N[C@@H](CC(C)C)C(=O)[C@@]2(C)CO2)NC(=O)[C@H](CC(C)C)NC1=O [15a]", "< 3.89"),
]

Please turn your attention to the following entry.
What value of pIC50 has been recorded for this entry: CC(C)C[C@@H](C=O)NC(=O)[C@@H]1Cc2ccc(cc2)Oc2cc(ccc2[N+](=O)[O-])C[C@H](NC(=O)OCc2ccccc2)C(=O)N[C@@H](CC(C)C)C(=O)N1 [compound 16, reference compound] 5.70

* * *

Target: human 20S proteasome T-L activity (Homo sapiens, UniProt Q99436)
Construct: human RBC proteasome was purchased from South Bay Bio; purchased South Bay Bio; host or cells: human red blood cells
Experiment: Fluorometric kinetic enzyme assay, 20S proteasome T-L activity (Ac-RLR-AMC)
Assay type: biochemical
pIC50: −log10 of the molar value.
measure name: pIC50

Fill in the blank: the reported pIC50 of CC(=O)N[C@@H](Cc1ccc([N+](=O)[O-])c(F)c1)C(=O)N[C@@H](CC(C)C)C(=O)N[C@@H](CC1C(=O)Nc2ccc(O)cc21)C(=O)N[C@@H](CC(C)C)C(=O)[C@@]1(C)CO1 (stereo partly shown) is ____. < 3.89

* * *

Target: human 20S proteasome PGPH-L activity (Homo sapiens, UniProt P28072)
Construct: human RBC proteasome was purchased from South Bay Bio; purchased South Bay Bio; host or cells: human red blood cells
Test: Fluorometric kinetic enzyme assay, 20S proteasome PGPH-L activity (Cbz-LLE-AMC)
Type: biochemical
measure name: IC50

Recall the recorded IC50 for CC(=O)N[C@@H](Cc1ccc([N+](=O)[O-])c(F)c1)C(=O)N[C@@H](CC(C)C)C(=O)N[C@@H](CC1C(=O)Nc2ccc(O)cc21)C(=O)N[C@@H](CC(C)C)C(=O)[C@@]1(C)CO1 (stereo partly shown) [compound 6] with human 20S proteasome PGPH-L activity (Homo sapiens, UniProt P28072) and state it. > 130 µM

* * *

Recorded IC50, one value per entry.
Target: m-calpain (Sus scrofa)
Construct: erythrocytes calpain-1 were purchased from Millipore; purchased Millipore; host or cells: porcine erythrocytes
Test: Fluorometric kinetic enzyme assay, m-calpain (Suc-LLVY-AMC)
Format: biochemical
Conditions: Suc-LLVY-AMC; N.I. = no inhibition at 130 μM; read-out: IC50 m-Calpain

# molecule, IC50
rows = [
    ("CC(=O)N[C@H]1Cc2ccc([N+](=O)[O-])c(c2)Oc2ccc(cc2)CC[C@@H](C(=O)N[C@@H](CC(C)C)C(=O)[C@@]2(C)CO2)NC(=O)[C@H](CC(C)C)NC1=O [15b]", "> 130 µM"),
    ("CC(=O)N[C@H]1Cc2ccc([N+](=O)[O-])c(c2)Oc2ccc3c(c2)C(C[C@@H](C(=O)N[C@@H](CC(C)C)C(N)=O)NC(=O)[C@H](CC(C)C)NC1=O)C(=O)N3 (stereo partly drawn) [compound 12]", "> 130 µM"),
]

Moving on to the next molecule.
Given CC(=O)N[C@H]1Cc2ccc([N+](=O)[O-])c(c2)Oc2ccc3c(c2)C(C[C@@H](C(=O)N[C@@H](CC(C)C)C(=O)[C@@]2(C)CO2)NC(=O)[C@H](CC(C)C)NC1=O)C(=O)N3 (stereo partly drawn) [compound 5] , state its recorded IC50. > 130 µM
